Just for reference, patent US20250017891A1 is where these values come from.

Test: In vivo bioconversion of CBT succinate in 50% PEG300 formulation, IV, mouse plasma by LC-MS/MS
Design: species or system ICR male mice
Conditions: male, ICR, mouse, plasma, iv, 15 mg/kg, mouse plasma; CBT succinate in 50% PEG300 formulation, 15 mg/kg IV; time 0.5 h
Measure Name: concentration at 0.5 h (ng/mL)
Write down the numeric answer in ng/mL and omit the unit.

## Task I am curious: what concentration at 0.5 h value has been reported for CO[C@H]1C(=O)[C@]2(C)[C@@H](OC)C[C@H]3OC[C@@]3(OC(C)=O)[C@H]2[C@H](OC(=O)c2ccccc2)[C@]2(O)C[C@H](OC(=O)[C@H](OC(=O)CCC(=O)O)[C@@H](NC(=O)OC(C)(C)C)c3ccccc3)C(C)=C1C2(C)C [CBT succinate, cabazitaxel succinate] ?
## Result 386
